- System: biotinyl-Phe-oxazolone
- ASSAY PROCEDURE: self-aminoacylation, catalytic enhancement (BFO) (fold over background); higher = more active; k-Seq, kA / k0A0; sequences stand for … in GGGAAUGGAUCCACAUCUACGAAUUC…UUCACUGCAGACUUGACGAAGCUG
Variants at the floor of the assay were thinned out.
OBSERVED PROPERTY: self-aminoacylation

>>> print(df.to_string())
                           primary_sequence  quantitative_readout
0  AAGUGUGCUAAUAGUAGCAAG [Fam3.1 aminoacylation ribozyme variant]                  1.65
1  AUUCACGAAGGUCAUCGGGUG [Fam2.2 aminoacylation ribozyme variant]                  89.6
2  UUUACCCCGGUCAUCGAGUGA [Fam2.1 aminoacylation ribozyme variant]                  35.5
3  AUUCACUUAGGUCAUCGGAUG [Fam2.2 aminoacylation ribozyme variant]                  0.46
4  AAGUUUGCUAAUAGUAACAAG [Fam3.1 aminoacylation ribozyme variant]                  1.58
5  CCACAUUUCAAGCAAUCGCUC [Fam1B.1 aminoacylation ribozyme variant]                  2.39
6  AUUACCCGAGUCAUCGAGUGA [Fam2.1 aminoacylation ribozyme variant]                  62.6
7  AUUCACGUAGGUCAUCGGGGG [Fam2.2 aminoacylation ribozyme variant]                  1.73
8  AUCCACCUAGCUCAUCGGGUG [Fam2.2 aminoacylation ribozyme variant]                  23.3
